assay: HPAF-II 12hr Apoptosis Induction qHTS against the NCATS CANVASS Library (AID 1347358); details: HPAF-II caspase-3/7 Caspase-Glo luminescence; series mostly up to 46.1 µM; also: 0% is about no effect
Results filed as inconclusive are left out. The source made the active and inactive calls. Calls follow the shape of the dose curve; as a rule, active = well fitted curve in the direction sought with a large enough effect; inconclusive = small, poorly fitted or top-dose-only effect, or another doubt; inactive = no such curve, though single readings can be large or run the other way.
value.kind: caspase activation

Solved entries:
molecule: COc1c(O)cc2oc(-c3ccccc3)cc(=O)c2c1O
value.kind: caspase activation
recorded.result: inactive
//
molecule: C[C@@H](O)[C@H]1OC(=O)C=C2[C@]3(C)[C@H]4[C@H](OC(=O)[C@@]4(C)[C@@H](O)[C@H]4O[C@H]43)[C@H]3O[C@@]231
value.kind: caspase activation
recorded.result: inactive
//
molecule: COc1ccc([C@@H]2c3cc(OC)c(OC)cc3C(=O)[C@H](C)C2C)cc1OC (stereo not given in full)
value.kind: caspase activation
recorded.result: 2.3% [at 9.19 µM] (inactive)
//
molecule: CC(C)(Br)[C@@H](Cl)C[C@H](Br)[C@](C)(Cl)/C=C/Br
value.kind: caspase activation
recorded.result: inactive

Note to self: caspase activation recorded for CC1(C)C=Cc2c(ccc3c2OC[C@@H](c2ccc(O)cc2O)C3)O1 was inactive

###

experiment: qHTS for ATAD5 Antagonist screened against the NCATS CANVASS Library (AID 1347370); conditions: HEK293T-ATAD5-luc, 5-FUrd stimulated, luminescence, 16 h; series mostly up to 46.1 µM;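 also: HEK293T cells carrying an ATAD5 luciferase reporter co-treated with 10 µM 5-fluorouridine; % is scaled to controls: 0 for no effect and ±100 for the full control effect; nearly all actives have a fitted effect of over 65% in size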
Records with an inconclusive call do not appear. Activity calls are given as the source filed them. The call rests on the fitted dose curve; in most records, active means well fitted inhibition curve with a large enough effect; inconclusive means small, poorly fitted or top-dose-only effect; inactive means no such curve, though single readings can be large or run the other way.
value.kind: outcome

compound: O=C(O)CC1OC(=O)c2c(O)cccc21 (stereo not drawn)
value.kind: outcome
recorded.result: inactive
--
compound: C=C[C@@]1(C)CC[C@@H]([C@H](C)C(=O)/C=C/C(C)C)O1
value.kind: outcome
recorded.result: inactive
--
compound: C/C1=C\CC(=O)/C=C/C=C\c2csc(n2)[C@@H](C)NC(=O)C[C@@](S)([C@@H](C)C(=O)O)CC1
value.kind: outcome
recorded.result: inactive

###

Assay: qHTS for Inhibitors of Plasmodium falciparum (7G8) proliferation (AID 504316); also: nearly all actives have a fitted effect of over 65% in size
Details: P. falciparum 7G8 in erythrocytes, SYBR Green DNA, 72 h; series mostly up to 6.7 µM
Excerpt: Plasmodium falciparum is a virulent malarial parasite that kills 1-2 million people worldwide each year. Malaria not only inflicts tremendous suffering and morbidity on the human population, but has dramatically influenced the course of civilization with profound sociological and economic implications (Shah, S. 2010). […] Because mature erythrocytes lack DNA, only Plasmodium-derived DNA is detected. […]
Inconclusive results are not listed. Active and inactive are the calls of the source. The call rests on the fitted dose curve; in most records, active means well fitted inhibition curve with a large enough effect; inconclusive means small, poorly fitted or top-dose-only effect; inactive means flat fitted curve, though single readings scatter.
Pick one: active, inactive

Worked set:
compound: COC(=O)CC=C1c2ccccc2[C@@H](NC(=O)OC)[C@@H]1C
qualitative.label: inactive

compound: CCOC(=O)NN=C1C[C@@H](O)[C@@H](O)[C@@H]2[C@H]3C(=O)N(Cc4ccc5c(c4)OCO5)C(=O)[C@@H]3CC[C@H]12
qualitative.label: inactive

compound: C=CCOC(=O)C(C(C)=O)[C@@H](NC(=O)OC)c1ccc2ccccc2c1 (some centres undefined)
qualitative.label: inactive

// return assay outcome for Cc1ccccc1Nc1oc(-c2ccccc2)nc1C(C)(C)C
active

// return assay outcome for C[C@H]1[C@@H](C(=O)N2CCCC2)CC(=NOCc2ccccc2)C(=NOCc2ccccc2)C[C@H]1c1ccccc1
active

// return assay outcome for C=C(C)[C@@H]1CC2=C(OC)C(CC=C(C)C)(CC=C(C)C)C(=O)C(C(=O)c3ccccc3)=C2O1
active

// return assay outcome for C=CC1(O)C(OC)=CC2C(=O)C1C(c1ccccc1)C2C (centres undefined)
inactive

// return assay outcome for COC(=O)CCCC1=CC2=CC(=O)C(C)(OC(=O)c3cccs3)C(=O)C2=CN1CCCOC(C)C (centres undefined)
inactive

// return assay outcome for CCN1C(=O)N(S(=O)(=O)c2ccc(C)cc2)C(c2ccccc2)C(C(=O)OC)=C1C (centres undefined)
inactive

###

assay: qHTS for differential inhibitors of proliferation of Plasmodium falciparum line 3D7 (AID 1876); details: P. falciparum 3D7 proliferation inhibition; series mostly up to 28.7 µM
Results filed as inconclusive are left out. The source made the active and inactive calls. The call rests on the fitted dose curve; in most records, active means well fitted curve in the direction sought with a large enough effect; inconclusive means small, poorly fitted or top-dose-only effect, or another doubt; inactive means no such curve, though single readings can be large or run the other way.
Pick one: active, inactive

compound: O=S(=O)(NCCNC/C=C/c1ccc(Br)cc1)c1cccc2cnccc12
qualitative.label: active

// return assay outcome for NC(CCC(=O)NCS(=O)(=O)O)C(=O)O (stereo not given)
inactive

// return assay outcome for NCCNS(=O)(=O)c1cccc2cnccc12
inactive

// return assay outcome for COc1cc2c(cc1C(F)(F)F)N(C(=O)Nc1cc(F)cc(-c3cccnc3)c1)CC2
active

// return assay outcome for O=Nc1c(-c2c(O)[nH]c3ccccc23)[nH]c2ccccc12
active

// return assay outcome for O=C(O)c1cc(=O)c2ccc(Cl)cc2[nH]1
inactive

// return assay outcome for CC(N)=NCc1cccc(CN)c1
inactive

// return assay outcome for S=C(Nc1ccccc1)Nc1nccs1
active

// return assay outcome for Cc1cccc(C)c1NC(=O)C[N+](C)(C)C
inactive

// return assay outcome for Nc1c(S(=O)(=O)O)cc(Nc2ccc(Nc3nc(Cl)nc(Nc4ccc(S(=O)(=O)O)cc4)n3)c(S(=O)(=O)O)c2)c2c1C(=O)c1ccccc1C2=O
inactive

// return assay outcome for FC(F)(F)c1cc(CO[C@H]2CCCN[C@H]2c2ccccc2)cc(C(F)(F)F)c1
active

// return assay outcome for Cc1ccc(OCC(O)C(C)NC(C)C)c2c1CCC2 (stereo not given)
active

###

Assay: qHTS for Inhibitors of Plasmodium falciparum (7G8) proliferation (AID 504316); also: nearly all actives have a fitted effect of over 65% in size
Settings: P. falciparum 7G8 in erythrocytes, SYBR Green DNA, 72 h; series mostly up to 6.7 µM
Description: Plasmodium falciparum is a virulent malarial parasite that kills 1-2 million people worldwide each year. Malaria not only inflicts tremendous suffering and morbidity on the human population, but has dramatically influenced the course of civilization with profound sociological and economic implications (Shah, S. 2010). […] Because mature erythrocytes lack DNA, only Plasmodium-derived DNA is detected. […]
Inconclusive results are not listed. Calls of active or inactive are those of the source. The call rests on the fitted dose curve; in most records, active means well fitted inhibition curve with a large enough effect; inconclusive means small, poorly fitted or top-dose-only effect; inactive means flat fitted curve, though single readings scatter.
Pick one: active, inactive

Worked set:
compound: CC1(OC(=O)C2CCCC2)C(=O)C=C2C=C(c3ccsc3)N(C3CCCC3)C=C2C1=O (stereo not given)
qualitative.label: inactive
//
compound: C[C@H]1Cc2c(COc3ccccc3)nc3c(c2CO1)CN(C(=O)C1CCCCC1)CC3
qualitative.label: inactive
//
compound: CCOC(=O)CN1C(=O)[C@]2(OCCC=C[C@@H]2C)c2cc(OC)ccc21
qualitative.label: inactive

// return assay outcome for CCN1C(=O)N[C@@H](CCc2ccccc2)[C@H](C(C)=O)[C@H]1C
inactive

// return assay outcome for COc1ccc(-c2nc3c(c4c2C[C@H](c2ccccc2)OC4)CN(C(=O)c2cc(I)ccc2F)CC3)c(C)c1
active

###

tested on: Zika virus NS2B-NS3 protease; test: Primary screen GU AMC qHTS for Zika virus inhibitors (AID 1347154); details: Zika NS2B-NS3 unlinked protease, AMC fluorogenic substrate; series mostly up to 54.1 µM; also: nearly all actives have a fitted effect of over 70% in size;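 as to activity change, negative = inhibition: 0% = no-inhibitor control and -100% = no-enzyme control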
Records with an inconclusive call do not appear. The source made the active and inactive calls. Calls come from the whole dose curve; as a rule, active = well fitted inhibition curve with a large enough effect; inconclusive = small, poorly fitted or top-dose-only effect; inactive = flat fitted curve, though single readings scatter.
value.kind: activity change, negative = inhibition

compound: COc1ccc(C(OCCN2CCC[C@@H](C(=O)O)C2)(c2ccc(OC)cc2)c2ccc(OC)cc2)cc1
recorded.result: inactive
--
compound: C[C@@](N)(C(=O)O)c1ccc(S(=O)(=O)O)cc1
recorded.result: inactive
--
compound: CCCCC[C@H](O)/C=C/C=C\CCCCCCCC(=O)O
recorded.result: inactive
--
compound: Cc1ccc(-c2nn(C(C)(C)C)c3ncnc(N)c23)cc1
recorded.result: inactive
--
compound: NC(C(=O)O)[C@H](O)C(=O)O (stereo not given in full)
recorded.result: inactive
--
compound: CCCCOc1cc(C[C@@H]2CNC(=O)N2)ccc1OC
recorded.result: inactive

Value (activity change, negative = inhibition, Zika virus NS2B-NS3 protease) for record C[C@H](CCC(=O)NCC(=O)O)C1CC[C@H]2C3CC[C@@H]4C[C@H](O)CC[C@]4(C)C3C[C@H](O)[C@]12C (stereo not given in full) = inactive

Value (activity change, negative = inhibition, Zika virus NS2B-NS3 protease) for record CC[C@@H]1Cn2c(c3nc(-c4cc(Cl)cc(Cl)c4Cl)nc-3n(C)c2=O)N1 = inactive

Value (activity change, negative = inhibition, Zika virus NS2B-NS3 protease) for record CC(Sc1nc2ccccc2[nH]1)C(=O)NN=Cc1cc(Br)ccc1O (stereo not given) = 1.61% [at 6.83 µM] (inactive)

###

system: Zika virus NS2B-NS3 protease; experiment: Primary screen GU AMC qHTS for Zika virus inhibitors (AID 1347154); settings: Zika NS2B-NS3 unlinked protease, AMC fluorogenic substrate; series mostly up to 54.1 µM; also: nearly all actives have a fitted effect of over 70% in size;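 as to activity change, negative = inhibition: 0% = no-inhibitor control and -100% = no-enzyme control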
Inconclusive results are not listed. Active and inactive are the calls of the source. Calls come from the whole dose curve; as a rule, active = well fitted inhibition curve with a large enough effect; inconclusive = small, poorly fitted or top-dose-only effect; inactive = flat fitted curve, though single readings scatter.
value.kind: activity change, negative = inhibition

molecule: COC(=O)/C=C/c1cc(O)ccc1O
activity change, negative = inhibition: inactive

molecule: CCCCC/C=C\CC1OC1CCCCCCCC(=O)O (centres undefined)
activity change, negative = inhibition: 6.59% [at 0.59 µM] (inactive)

molecule: CC[C@@H](C)[C@H]1O[C@]2(CC[C@@H]1C)C[C@@H]1C[C@H](C/C=C(/C)[C@H](O[C@@H]3C[C@H](OC)[C@H](O[C@@H]4C[C@H](OC)[C@@H](O)[C@H](C)O4)[C@H](C)O3)[C@@H](C)/C=C\C=C3CO[C@@H]4[C@H](O)C(C)=C[C@@H](C(=O)O1)[C@]34O)O2 (tested in a mixture with another compound)
activity change, negative = inhibition: inactive

molecule: CCCCCCCCCCCCC/C=C/[C@@H](O)[C@H](CO)NC(=O)CCCCCCC
activity change, negative = inhibition: 11.7% [at 6.83 µM] (inactive)

molecule: N=C(N)SCCN=C(N)N
activity change, negative = inhibition: inactive

molecule: C[N+](C)(C)CCCCCNCC12CC3CC(CC(C3)C1)C2
activity change, negative = inhibition: inactive

Note to self: activity change, negative = inhibition recorded for N#C[C@H](Cc1ccc(O)cc1)c1ccc(O)cc1 was inactive

Note to self: activity change, negative = inhibition recorded for CN(C)/C(N)=N/C(=N)N was inactive

Note to self: activity change, negative = inhibition recorded for O=c1ccn([C@@H]2O[C@H](COP(=O)(O)O)[C@@H](O)[C@H]2O)c(=O)[nH]1 was inactive
